# target-or-test-system: T1, HLA-DR11 molecule (DRB1*1101) (human)
# T1 chain 1: not shown
# T1 chain 2: not shown
# experimental-details: competition ELISA vs biotin-HA 306-318
measured-property: IC50

binder="PTLHEYMLDLQPETT (modifications not checked) [E7 6-20]" recorded_value="1500 nM"
binder="QQLLRREVYDFAFRD (modifications not checked) [E6 42-56]" recorded_value="6000 nM"
binder="QRFHNIRGRWTGRCM (modifications not checked) [E6 130-144]" recorded_value="115 nM"
binder="RHYCYSLYGTTLEQQ (modifications not checked) [E6 84-98]" recorded_value="7000 nM"
binder="SEYRHYCYSLYGTTL (modifications not checked) [E6 81-95]" recorded_value="725 nM"
binder="RDLCIVYRDGNPYAV (modifications not checked) [E6 55-69]" recorded_value="250 nM"

Taken from patent US20040170644A1.
